System: Candida albicans
Assay: Antifungal activity against FLC-resistant Candida albicans CaR assessed as fungal growth inhibition incubated for 72 hrs by CLSI based susceptibility test
Format: functional
Hi there, I'd appreciate the recorded MIC50 for every entry that follows.

Just so you know, measured MIC50 for Cc1c(CN2CCCC(C(=O)N[C@H](Cn3cncn3)C(=O)OC(C)C)C2)cccc1-c1ccccc1 (stereo not given in full) came out at 4 µg/mL

Just so you know, measured MIC50 for CC(C)OC(=O)[C@@H](Cn1ccnc1)NC(=O)C1CCCN(C(=O)c2cccc(-c3ccccc3)c2)C1 (stereo not given in full) came out at 2 µg/mL

Just so you know, measured MIC50 for CC(=O)N1CCN(c2ccc(OCC3COC(Cn4ccnc4)(c4ccc(Cl)cc4Cl)O3)cc2)CC1 (stereo not given) came out at ≥ 8 µg/mL

Just so you know, measured MIC50 for OC(Cn1cncn1)(Cn1cncn1)c1ccc(F)cc1F came out at ≥ 8 µg/mL

Just so you know, measured MIC50 for COC(=O)[C@@H](Cn1cncn1)NCc1cccc(OCc2cccc(-c3ccccc3)c2C)c1 came out at 2 µg/mL

###

Target: Lanosterol 14-alpha demethylase (Candida albicans (strain SC5314 / ATCC MYA-2876) (Yeast), UniProt P10613)
Sequence (P10613 whole entry): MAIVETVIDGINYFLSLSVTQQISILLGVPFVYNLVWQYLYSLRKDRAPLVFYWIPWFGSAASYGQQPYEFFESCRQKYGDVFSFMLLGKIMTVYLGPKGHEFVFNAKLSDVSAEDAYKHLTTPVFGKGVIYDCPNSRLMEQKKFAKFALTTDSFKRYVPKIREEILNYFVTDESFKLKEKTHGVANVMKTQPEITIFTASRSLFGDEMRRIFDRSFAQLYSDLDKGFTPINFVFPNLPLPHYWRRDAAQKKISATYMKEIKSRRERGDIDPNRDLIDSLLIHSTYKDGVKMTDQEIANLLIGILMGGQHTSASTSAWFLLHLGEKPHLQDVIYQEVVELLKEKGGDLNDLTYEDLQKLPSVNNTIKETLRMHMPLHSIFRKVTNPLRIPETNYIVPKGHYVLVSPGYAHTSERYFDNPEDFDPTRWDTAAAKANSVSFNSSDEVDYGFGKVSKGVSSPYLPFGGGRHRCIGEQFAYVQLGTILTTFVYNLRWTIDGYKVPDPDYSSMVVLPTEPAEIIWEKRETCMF
Assay: Inhibition of CYP51 in Candida albicans SC5314 assessed as unknown sterol level at 4 ug/ml incubated for 16 hrs by GC-MS analysis (reference value: 5.35 %)
Design: scale not given: the % may be the effect or the level left
Conditions: at 4 µg/mL
valueKind: Activity (%)
Field format: number, assumed %, no unit text.

Just so you know, measured Activity for CC(C)OC(=O)[C@@H](Cn1ccnc1)NC(=O)C1CCCN(C(=O)c2cccc(-c3ccccc3)c2)C1 (some centres undefined) came out at 4.96

Just so you know, measured Activity for CC(=O)N1CCN(c2ccc(OCC3COC(Cn4ccnc4)(c4ccc(Cl)cc4Cl)O3)cc2)CC1 (centres undefined) came out at 5.07

Just so you know, measured Activity for Cc1c(CN2CCCC(C(=O)N[C@H](Cn3cncn3)C(=O)OC(C)C)C2)cccc1-c1ccccc1 (some centres undefined) came out at 4.19

Just so you know, measured Activity for COC(=O)[C@@H](Cn1cncn1)NCc1cccc(OCc2cccc(-c3ccccc3)c2C)c1 came out at 6.65

###

Target: Lanosterol 14-alpha demethylase (Candida albicans (strain SC5314 / ATCC MYA-2876) (Yeast))
Test: Inhibition of CYP51 in Candida albicans SC5314 assessed as lanosterol level at 4 ug/ml incubated for 16 hrs by GC-MS analysis relative to control
Parameters: scale not given: the % may be the effect or the level left
Conditions: at 4 µg/mL
Hi there, I'd appreciate the recorded Activity for every entry that follows.

Just so you know, measured Activity for Cc1c(CN2CCCC(C(=O)N[C@H](Cn3cncn3)C(=O)OC(C)C)C2)cccc1-c1ccccc1 (some centres undefined) came out at 11.25%

Just so you know, measured Activity for CC(C)OC(=O)[C@@H](Cn1ccnc1)NC(=O)C1CCCN(C(=O)c2cccc(-c3ccccc3)c2)C1 (some centres undefined) came out at 12.71%

Just so you know, measured Activity for CC(=O)N1CCN(c2ccc(OCC3COC(Cn4ccnc4)(c4ccc(Cl)cc4Cl)O3)cc2)CC1 (centres undefined) came out at 13.06%

Just so you know, measured Activity for COC(=O)[C@@H](Cn1cncn1)NCc1cccc(OCc2cccc(-c3ccccc3)c2C)c1 came out at 10.47%
